Reference source: PubChem BioAssay AID1159580

Protocol: chemical genetic growth profiling, strain panel (AID 1159580);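 also: tested at 20 µM; growth read once vehicle control cultures reached saturation at 30 °C; 1 = growth at the plate median or of vehicle wells; lower values mean less growth of the strain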
Experimental setup: S. cerevisiae deletion strains, growth OD, locus YGL086W, strain mad1, stronger effect = lower value
The campaign covered roughly 5,500 compounds. About 2,000 (36%) were called active. Not shown: some 18% with an inconclusive outcome. The list shows a part of the results.
Listed here are compounds together with their documented normalized growth.
Would you mind answering with just the numeric figure?

[[record]]
compound = "CCCCOc1ccc(CC(=O)NO)cc1"
recorded_measurement = 1

[[record]]
compound = "C[N+](C)(C)CCOP(=O)([O-])OP(=O)(O)OC[C@H]1OC(n2ccc(N)nc2=O)[C@H](O)[C@@H]1O (some centres not stated)"
recorded_measurement = 1.01

[[record]]
compound = "CCC1(c2ccccc2)C(=O)NCNC1=O"
recorded_measurement = 1

[[record]]
compound = "CCC1(c2ccc(N)cc2)CCC(=O)NC1=O (configuration not stated)"
recorded_measurement = 0.994


Per the records, this compound ( `CC(=C(CCOP(=O)(O)O)SC(=O)c1ccccc1)N(C=O)Cc1cnc(C)nc1N` ) has normalized growth equal to 1.01

Per the records, this compound ( `Cc1c(O)cc(O)c2c(=O)c(-c3ccc(O)cc3)coc12` ) has normalized growth equal to 1.02

Per the records, this compound ( `Cc1cc(=O)c2c(O)cc(O)c(C)c2o1` ) has normalized growth equal to 1

Per the records, this compound ( O=C(O)C1CC([C@@H]2CCCCN2)CN2CCCCC12 (some centres not stated) ) has normalized growth equal to 1.03

Per the records, this compound ( `Cc1ccc(O)cc1` ) has normalized growth equal to 1.01

Per the records, this compound ( `O=C(O)COc1cc(Cl)c(Cl)cc1Cl` ) has normalized growth equal to 1.01

Per the records, this compound ( `COC(=O)COc1ccc(Cl)cc1Cl` ) has normalized growth equal to 1

Per the records, this compound ( CC(=O)O[C@@](C)(CCC=C(C)C)C1CC=C(C)CC1 (some centres not stated) ) has normalized growth equal to 0.991

* * *

Protocol: chemical genetic growth profiling, strain panel (AID 1159580)
Experimental setup: S. cerevisiae deletion strains, growth OD, locus YHR079C, strain IRE1
Among all 5,500 compounds or so, about 2,000 (36%) were called active. Roughly 18% stayed inconclusive and do not appear here. Rule as the data show it: active = normalized growth mostly below about 0.91 (no sharp cut-off); inconclusive = no clear call, values can overlap the other calls; inactive = mostly above about 0.92. The list shows a part of the results.
Outcome (select one): active, inactive

Answered examples (5):
[[record]]
molecule = "COC(=O)C1[C@H]2C[C@H]3c4[nH]c5ccccc5c4CCN3C[C@@H]2CC[C@@H]1O (stereo partly specified)"
assigned_category = "inactive"

[[record]]
molecule = "COc1ccc(C(=O)c2ccccc2O)c(O)c1"
assigned_category = "inactive"

[[record]]
molecule = "COc1ccc(C(C)=O)c(O)c1"
assigned_category = "inactive"

[[record]]
molecule = "COC(=O)[C@@H]1C(O)CC[C@H]2CN3CCc4c([nH]c5ccccc45)[C@@H]3C[C@@H]21 (stereo partly specified)"
assigned_category = "inactive"

[[record]]
molecule = "COc1ccc(C(C)=O)c(OC)c1"
assigned_category = "inactive"


Let's switch to this molecule now.
Which outcome did this test record for the molecule `CCN(CC)C(=S)SSC(=S)N(CC)CC` ?
active

* * *

Protocol: chemical genetic growth profiling, strain panel (AID 1159580)
Experimental setup: S. cerevisiae deletion strains, growth OD, locus YOR316C, strain cot1, stronger effect = lower value
Screen size: about 5,500 compounds; about 2,000 (36%) were called active. Inconclusive results (about 18%) are left out. The list shows a part of the results.
Listed here are compounds together with their documented normalized growth.
Would you mind answering with just the numeric figure?

Known results for compounds:
[[record]]
compound = "NC(=O)N1c2ccccc2CC(=O)c2ccccc21"
property_name = "normalized growth"
recorded_measurement = 0.983

[[record]]
compound = "NC(=O)c1ncn([C@@H]2O[C@H](CO)[C@@H](O)[C@H]2O)c1O"
property_name = "normalized growth"
recorded_measurement = 1.01

[[record]]
compound = "COc1cc(O)c2c(=O)cc(C)oc2c1CC=C(C)C"
property_name = "normalized growth"
recorded_measurement = 0.944

[[record]]
compound = "CC(C)N(C(=O)CCl)c1ccccc1"
property_name = "normalized growth"
recorded_measurement = 1.01

[[record]]
compound = "COc1c(O)cc2oc3cc(O)c(CC=C(C)C)c(O)c3c(=O)c2c1CC=C(C)C"
property_name = "normalized growth"
recorded_measurement = 0.927


Per the records, this compound ( CC1(O)/C=C/C=C(\CO)C2CC(C)(C)C2(O)CC1 (configuration not stated) ) has normalized growth equal to 1

Per the records, this compound ( `CC(C)=CCc1c(O)cc(C)oc1=O` ) has normalized growth equal to 0.971

Per the records, this compound ( COC(=O)[C@@H]1C(O)CC[C@H]2CN3CCc4c([nH]c5ccccc45)[C@@H]3C[C@@H]21 (some centres not stated) ) has normalized growth equal to 0.981

Per the records, this compound ( `O=C(O)c1cc(=O)c2ccc(Cl)cc2[nH]1` ) has normalized growth equal to 0.994

Per the records, this compound ( `N#Cc1c(Cl)c(Cl)c(Cl)c(C#N)c1Cl` ) has normalized growth equal to 0.984

* * *

Listed here are compounds together with their documented normalized growth.
Protocol: chemical genetic growth profiling, strain panel (AID 1159580)
Experimental setup: S. cerevisiae deletion strains, growth OD, locus YML124C, strain tub3, stronger effect = lower value
About 2,000 (36%) of roughly 5,500 compounds were called active. Another 18% or so got no clear call; they are omitted. This is one part of the list.
Would you mind answering with just the numeric figure?

Known results for compounds:
[[record]]
compound = "O=c1ccc2cc(O)c(O)cc2o1"
recorded_measurement = 0.996

[[record]]
compound = "COC(=O)C1[C@H]2C[C@H]3c4[nH]c5ccccc5c4CCN3C[C@@H]2CC[C@@H]1O (stereo partly specified)"
recorded_measurement = 1.01

[[record]]
compound = "c1ccc(CC2=NCCN2)cc1"
recorded_measurement = 0.904

[[record]]
compound = "COC(=O)[C@H]1[C@H]2C[C@H]3c4[nH]c5ccccc5c4CCN3C[C@H]2CC[C@@H]1O"
recorded_measurement = 0.993

[[record]]
compound = "CN=C(NC#N)NCCSCc1nc[nH]c1C"
recorded_measurement = 0.98


Per the records, this compound ( `Cc1cc(=O)c2c(O)c(C)c(O)cc2o1` ) has normalized growth equal to 0.99

* * *

Protocol: chemical genetic growth profiling, strain panel (AID 1159580);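 also: tested at 20 µM; growth read once vehicle control cultures reached saturation at 30 °C; 1 = growth at the plate median or of vehicle wells; lower values mean less growth of the strain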
Experimental setup: S. cerevisiae deletion strains, growth OD, locus YDL005C, strain med2, stronger effect = lower value
About 2,000 (36%) of roughly 5,500 compounds were called active. About 18% were inconclusive and are not listed. This is one part of the list.
Property name: normalized growth
Would you mind answering with just the numeric figure?

Known results for compounds:
[[record]]
smiles_str = "Cc1cc(OC(=O)N2CCCCC2)c(C(C)C)cc1[N+](C)(C)C"
recorded_measurement = 1.02

[[record]]
smiles_str = "N#Cc1c(Cl)c(Cl)c(Cl)c(C#N)c1Cl"
recorded_measurement = 0.0898


Attention now shifts to the item below.
Per the records, this compound ( `Cc1c(N(C)C)c(=O)n(-c2ccccc2)n1C` ) has normalized growth equal to 0.96

* * *

Listed here are compounds together with their documented normalized growth.
Protocol: chemical genetic growth profiling, strain panel (AID 1159580);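 also: tested at 20 µM; growth read once vehicle control cultures reached saturation at 30 °C; 1 = growth at the plate median or of vehicle wells; lower values mean less growth of the strain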
Experimental setup: S. cerevisiae deletion strains, growth OD, locus YLR342W, strain FKS1, stronger effect = lower value
About 2,000 (36%) of roughly 5,500 compounds were called active. Inconclusive results (about 18%) are left out. The list shows a part of the results.
Would you mind answering with just the numeric figure?

Known results for compounds:
[[record]]
compound = "Cn1cc[nH]c1=S"
property_name = "normalized growth"
recorded_measurement = 0.97

[[record]]
compound = "CCOC(=O)c1ncn2c1CN(C)C(=O)c1cc(F)ccc1-2"
property_name = "normalized growth"
recorded_measurement = 1.02

[[record]]
compound = "N#Cc1c(Cl)c(Cl)c(Cl)c(C#N)c1Cl"
property_name = "normalized growth"
recorded_measurement = 0.0799

[[record]]
compound = "C=C1CC[C@H](O)C/C1=C/C=C1\\CCC[C@]2(C)C([C@H](C)/C=C/[C@H](C)C(C)C)CC[C@@H]12 (stereo partly specified)"
property_name = "normalized growth"
recorded_measurement = 1.01

[[record]]
compound = "CCc1ccc(CCOc2ccc(CC3SC(=O)NC3=O)cc2)nc1 (stereo unspecified)"
property_name = "normalized growth"
recorded_measurement = 1.02


Per the records, this compound ( `CC(C)=CCc1c(O)cc2oc(C)cc(=O)c2c1O` ) has normalized growth equal to 0.974

* * *

Protocol: chemical genetic growth profiling, strain panel (AID 1159580);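 also: tested at 20 µM; growth read once vehicle control cultures reached saturation at 30 °C; 1 = growth at the plate median or of vehicle wells; lower values mean less growth of the strain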
Experimental setup: S. cerevisiae deletion strains, growth OD, locus YLR320W, strain mms22, stronger effect = lower value
The whole screen tested about 5,500 compounds, of which about 2,000 (36%) were called active. About 18% were inconclusive and are not listed. Some of the results follow.
Listed here are molecules together with their documented normalized growth.
Would you mind answering with just the numeric figure?

Known results for molecules:
[[record]]
molecule = "CC(C)CC1C(=O)N2CCC[C@H]2C2(O)O[C@](NC(=O)C3C=C4c5cccc6[nH]c(Br)c(c56)C[C@H]4N(C)C3)(C(C)C)C(=O)N12 (some centres undefined)"
recorded_measurement = 0.982

[[record]]
molecule = "COc1ccc2c(c1)OC[C@@H](Cc1ccc(OC)c(OC)c1)[C@@H]2O"
recorded_measurement = 0.971

[[record]]
molecule = "CC(=O)O[C@]1(C(C)=O)CCC2C3C[C@H](C)C4=CC(=O)CC[C@]4(C)C3CC[C@@]21C (some centres undefined)"
recorded_measurement = 0.875


Per the records, this molecule ( `OC(CCN1CCCCC1)(c1ccccc1)c1ccccc1` ) has normalized growth equal to 0.999

Per the records, this molecule ( `COc1ccc2c(c1)OC[C@@H](Cc1ccc(OC)c(OC)c1)[C@H]2O` ) has normalized growth equal to 1.01

Per the records, this molecule ( CC(=O)O[C@]1(C(C)=O)CCC2C3C=C(C)C4=CC(=O)CCC4(C)C3CCC21C (some centres undefined) ) has normalized growth equal to 0.864

Per the records, this molecule ( CCCCCC(=O)O[C@]1(C(C)=O)CCC2C3CCC4=CC(=O)CC[C@]4(C)C3CC[C@@]21C (some centres undefined) ) has normalized growth equal to 1.01

Per the records, this molecule ( `COc1cc(OC)c2c(c1)O[C@H](c1ccc(OC)c(OC)c1)[C@@H](O)C2` ) has normalized growth equal to 0.979

Per the records, this molecule ( CC(=O)[C@H]1CCC2C3C[C@H](C)C4=CC(=O)CC[C@]4(C)C3[C@@H](O)C[C@@]21C (some centres undefined) ) has normalized growth equal to 0.961
